Value source: PubChem BioAssay (NCI)

test.method.notes: NCI Yeast Anticancer Drug Screen. Data for the cln2 rad14 strain (AID 165);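 further: 0% = growth equal to vehicle treated cultures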
stated.conditions: S. cerevisiae cln2 rad14 strain, at 50.0 µM, active compounds read high
About 79,000 compounds went through this panel and 15% of them were active in at least one assay; those are over-represented in the sample as a whole.
Consider the following compounds; for each one, report its growth inhibition.
Quick reminder: number only, in %, skip the unit.

Query: growth inhibition; subject: O=C(Nc1cc(Cl)c(Cl)cc1Cl)N1CCOCC1
5.25

Query: growth inhibition; subject: O=C(O)C(CCc1cccc(Cl)c1)C(=O)O
2.15

Query: growth inhibition; subject: CC/C=N/Nc1ccc([N+](=O)[O-])cc1[N+](=O)[O-]
3.3

Query: growth inhibition; subject: Cc1ccc(NC(=O)Oc2ccccn2)cc1
-4.4

Query: growth inhibition; subject: NC(=O)COc1c(Br)cc(Br)cc1Br
-3.75

Query: growth inhibition; subject: Cn1cc2c(=O)n(OS(=O)(=O)c3ccccc3)c(=O)[nH]c2n1
-4.4
